assay: DUSP6 inhibitors restoring Erk phosphorylation by chemical complementation, primary imaging in DUSP6-transfected HeLa (AID 609); details: HeLa MKP-3 transfected, phospho-Erk imaging KS statistic; measured here: nuclear c-Myc green intensity z-score; at 10 µM; cells stimulated with TPA for 15 min
Each record's class is read off its z-score using these ranges: I (below -0.4), II (-0.4 to below 0.7), III (0.7 or more)

In: Textbook exercise: identify the category of the compound given here, Cn1cnc2c1c(=O)[nH]c(=O)n2C , according to its measured value.
Out: II

* * *

assay: inhibitors of TNFa-induced NFkB p65 translocation, primary screen, imaging, HUVEC, MLSMR starter and 10KST1 sets (AID 438); settings: HUVEC TNFa-induced p65 nuclear translocation; at 2 µM, stronger effect = higher value, 0% TNFa-plus-vehicle, 100% no-TNFa wells;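 further: compound added about 3h40 before a 20 min TNFalpha stimulation; signal is the nuclear over cytoplasmic p65 intensity ratio per well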
OBSERVED_PROPERTY: inhibition (%)
Give your result in % as a bare value.

>>> print(df.to_string())
                                   compound  value_observed
0  CCOc1ccc(C2C(C(=O)c3ccc(C)o3)=C(O)C(=O)N2CCCN(CC)CC)cc1 (stereo unspecified)           -20.5
1  COC(=O)C1C(=O)CC(C)(O)C(C(=O)OC)C1c1ccccc1F (stereo unspecified)            -1.8
2  COc1cc(/C=C/C(=O)CC(=O)/C=C/c2ccc(O)c(OC)c2)ccc1O            -5.9
3  COc1ccccc1N1C(=O)C2ON(c3ccccc3)C(c3ccc(N(C)C)cc3)C2C1=O (stereo unspecified)            -8.3
4                   CCn1nnc(C(=O)O)c1C(=O)O            -8.1
5          CC1(C)CNC(=O)c2sc(N3CCOCC3)nc2C1            -0.5
6    CCCSc1nc(N2CCCC2)c2c(c1C#N)CC(C)(C)OC2            -7.7
7  C[C@H]1C[C@@H]2[C@H]([C@@H](O)C[C@@]3(C)[C@H]2CC[C@]3(O)C(=O)CO)[C@@]2(C)C=CC(=O)C=C12            -3.7

Please fill in: inhibition reported for CCOC(=O)N1CCC(=C2c3ccc(Cl)cc3CCc3cccnc32)CC1 = -7.4

Please fill in: inhibition reported for O=S(=O)(c1ccccc1)N1CCC(N2CCN(c3ccccc3)CC2)CC1 = -26.3

Please fill in: inhibition reported for O=C1CC(NCc2ccc3c(c2)OCO3)C(=O)N1Cc1ccc2c(c1)OCO2 (stereo unspecified) = 5.6
